biological target: T1, recombinant human EphA5 (rhEphA5) antigen (human, UniProt P54756 25-573); assay: SPR single-cycle kinetics (Biacore T200), IgG from HEK supernatant captured on anti-human IgG CM5 chip, rhEphA5 as analyte, 1:1 fit
T1 construct: also called human EphA5 (R and D systems, Cat. No. 3036-A5); recombinant EphA5
T1 sequence (P54756 25-573 limits assumed): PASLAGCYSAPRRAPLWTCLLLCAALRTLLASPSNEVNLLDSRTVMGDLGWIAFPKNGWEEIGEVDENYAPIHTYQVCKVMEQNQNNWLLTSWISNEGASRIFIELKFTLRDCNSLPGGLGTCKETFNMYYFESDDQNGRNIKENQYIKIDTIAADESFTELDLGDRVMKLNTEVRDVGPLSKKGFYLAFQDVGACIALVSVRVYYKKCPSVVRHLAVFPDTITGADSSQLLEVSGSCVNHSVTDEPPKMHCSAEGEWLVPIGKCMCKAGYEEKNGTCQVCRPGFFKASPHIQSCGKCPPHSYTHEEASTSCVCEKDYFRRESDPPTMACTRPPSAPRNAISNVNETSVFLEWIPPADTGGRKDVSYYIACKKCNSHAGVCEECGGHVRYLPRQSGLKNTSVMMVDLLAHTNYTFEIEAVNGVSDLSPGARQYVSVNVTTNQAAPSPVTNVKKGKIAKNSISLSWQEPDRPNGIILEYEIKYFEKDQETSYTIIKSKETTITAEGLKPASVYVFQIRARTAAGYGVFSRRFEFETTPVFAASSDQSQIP
Lab note: compare Kd with 1 nM, writing criterion met if less and criterion not met if equal or more.

VH1/VK0 (antibody, human IgG1, kappa, V domains shown, tested as HEK supernatant; also called control antibody (humanized VH1 heavy chain with chimeric light chain)) VH: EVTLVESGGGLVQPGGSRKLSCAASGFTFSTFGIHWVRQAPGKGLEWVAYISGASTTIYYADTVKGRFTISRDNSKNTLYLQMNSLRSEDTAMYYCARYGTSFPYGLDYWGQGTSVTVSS VL: DIVMTQSPGSLAVSLGQRATISCKASQSVDYDGDSYMNWYQQKPGQPPKLLIYGASNLESGIPARFSGSGSGTDFTLNIHPVEEEDAASYYCQQSNEDPFTFGSGTKLEIKR
criterion not met
VH5/VK2 humanized 11C12 antibody (antibody, human IgG1, kappa, V domains shown, Human IgG1/kappa; lead variant, tested as HEK supernatant and as protein purified from CHO; also called H5K2) VH: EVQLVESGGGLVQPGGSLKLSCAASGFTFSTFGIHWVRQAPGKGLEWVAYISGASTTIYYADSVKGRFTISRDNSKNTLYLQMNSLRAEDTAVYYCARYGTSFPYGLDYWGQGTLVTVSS VL: DIVMTQSPDSLAVSLGERATINCKASQSVDYDGDSYMNWYQQKPGKAPKLLIYGASNLESGIPDRFSGSGSGTDFTLTISRLEPEDAASYYCQQSNEDPFTFGQGTKLEIKR
criterion met
VH6/VK1 humanized 11C12 antibody (antibody, human IgG1, kappa, V domains shown, Human IgG1/kappa; tested as HEK293 EBNA supernatant; also called H6K1) VH: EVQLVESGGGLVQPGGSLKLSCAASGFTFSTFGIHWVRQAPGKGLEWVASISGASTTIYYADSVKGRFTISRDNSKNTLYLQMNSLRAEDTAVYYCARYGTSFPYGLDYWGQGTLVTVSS VL: DIVMTQSPGSLAVSLGERATINCKASQSVDYDGDSYMNWYQQKPGKAPKLLIYGASNLESGIPDRFSGSGSGTDFTLTISRLEEEDAASYYCQQSNEDPFTFGQGTKLEIKR
criterion not met
VH5/VK4 humanized 11C12 antibody (antibody, human IgG1, kappa, V domains shown, Human IgG1/kappa; lead variant, tested as HEK supernatant and as protein purified from CHO; also called H5K4) VH: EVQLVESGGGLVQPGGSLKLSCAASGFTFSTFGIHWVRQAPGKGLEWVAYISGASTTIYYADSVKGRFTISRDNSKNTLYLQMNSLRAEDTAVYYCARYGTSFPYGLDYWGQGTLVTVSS VL: DIVMTQSPDSLAVSLGERATINCKSSQSVDYDGDSYMNWYQQKPGKAPKLLIYGASNLESGIPDRFSGSGSGTDFTLTISRLEPEDAASYYCQQSNEDPFTFGQGTKLEIKR
criterion not met
VH5/VK1 humanized 11C12 antibody (antibody, human IgG1, kappa, V domains shown, Human IgG1/kappa; tested as HEK293 EBNA supernatant; also called H5K1) VH: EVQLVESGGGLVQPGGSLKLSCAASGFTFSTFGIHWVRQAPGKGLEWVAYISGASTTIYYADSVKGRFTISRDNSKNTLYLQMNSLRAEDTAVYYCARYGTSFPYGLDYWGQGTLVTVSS VL: DIVMTQSPGSLAVSLGERATINCKASQSVDYDGDSYMNWYQQKPGKAPKLLIYGASNLESGIPDRFSGSGSGTDFTLTISRLEEEDAASYYCQQSNEDPFTFGQGTKLEIKR
criterion met
VH6/VK2 humanized 11C12 antibody (antibody, human IgG1, kappa, V domains shown, Human IgG1/kappa; tested as HEK293 EBNA supernatant; also called H6K2) VH: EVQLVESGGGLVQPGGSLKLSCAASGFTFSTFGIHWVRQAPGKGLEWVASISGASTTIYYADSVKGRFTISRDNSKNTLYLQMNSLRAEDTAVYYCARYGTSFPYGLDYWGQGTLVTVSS VL: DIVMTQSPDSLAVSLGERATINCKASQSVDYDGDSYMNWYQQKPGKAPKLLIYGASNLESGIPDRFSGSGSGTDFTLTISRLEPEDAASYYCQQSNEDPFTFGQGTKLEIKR
criterion not met
VH6/VK3 humanized 11C12 antibody (antibody, human IgG1, kappa, V domains shown, Human IgG1/kappa; tested as HEK293 EBNA supernatant; also called H6K3) VH: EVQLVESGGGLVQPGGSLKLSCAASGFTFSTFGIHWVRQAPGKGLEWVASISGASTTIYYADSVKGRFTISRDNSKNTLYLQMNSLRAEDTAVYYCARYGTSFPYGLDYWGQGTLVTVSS VL: DIVMTQSPDSLAVSLGERATINCKASQSVDYDGDSYMNWYQQKPGKAPKLLIYGASNLESGIPDRFSGSGSGTDFTLTISRLEPEDAAVYYCQQSNEDPFTFGQGTKLEIKR
criterion not met
chimeric VH0/VK0 antibody (murine 11C12 variable regions, human IgG1/kappa constant regions) (antibody, V domains shown, also called chimeric antibody) VH: EVTLKESGGGLVQPGGSRKLSCAASGFTFSTFGIHWVRQAPEKGLEWVAYISGASTTIYYADTVKGRFTISRDNPKNTLFLQMTSLRSEDTAMYYCARYGTSFPYGLDYWGQGTSVTVSS VL: DIVMTQSPGSLAVSLGQRATISCKASQSVDYDGDSYMNWYQQKPGQPPKLLIYGASNLESGIPARFSGSGSGTDFTLNIHPVEEEDAASYYCQQSNEDPFTFGSGTKLEIKR
criterion not met

Turning to the following binder.
Input: API: query returns whether the binder falls strictly under 1 nM in Kd. Query: VH6/VK5 humanized 11C12 antibody (antibody, human IgG1, kappa, V domains shown, Human IgG1/kappa; tested as HEK293 EBNA supernatant; also called H6K5) VH: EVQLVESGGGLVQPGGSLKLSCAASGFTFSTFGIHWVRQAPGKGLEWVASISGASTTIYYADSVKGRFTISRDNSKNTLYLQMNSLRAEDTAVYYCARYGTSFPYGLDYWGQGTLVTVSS VL: DIVMTQSPDSLAVSLGERATINCKSSQSVDYDGDSYMNWYQQKPGKAPKLLIYGASNLESGIPDRFSGSGSGTDFTLTISRLEPEDAAVYYCQQSNEDPFTFGQGTKLEIKR
Output: criterion not met
